Recorded measurements of chromatographic logP, one per entry
Give the value as a plain number.

# example entries with known answers
In [3]: df
Out[3]:
              molecule_smiles  endpoint_value
0   C=CCn1nc(C(C)=O)c2ccccc21            2.53
1  CC(=O)c1cn(C(F)F)c2ccccc12            2.22
2  CC(=O)c1nn(C(F)F)c2ccccc12            2.67

[Q] Name the recorded chromatographic logP for CC(=O)c1nn(C(C)C)c2ccccc12 .
[A] 2.98

[Q] Look at this molecule and give its reported chromatographic logP. CCn1cc(C(C)=O)c2ccccc21
[A] 2.35

[Q] I'd like to know its chromatographic logP. The molecule in question is CCCn1nc(C(C)=O)c2ccccc21
[A] 2.81

Reference for the values: patent US6462039B1
